System: PfIESI-1 RRM domain (Plasmodium falciparum ortholog aa 875-1232, GST fusion)
procedure_summary: RBNS R-value (6-mer enrichment in protein-bound RNA vs input library) (ratio); higher = stronger binding preference; the methods of the paper give 50 / 100 / 500 nM protein instead
condition_notes: protein concentration: 500 nM
Whole data set: some 4,100 sequences, median “RBNS R-value (6-mer enrichment in protein-bound RNA vs input library)” near 0.99, cut for the highest 2% near 1.4. Many of the other results were omitted from the sample, so the highest values are more common in it than they were.
# label = Met if RBNS R-value >= 1 else Not met

# sequence_chain, test_target, category
measured = [
    ("UGAUGG", "PfIESI-1 RRM domain (Plasmodium falciparum ortholog aa 875-1232, GST fusion)", "Met"),
    ("GCCCGG", "PfIESI-1 RRM domain (Plasmodium falciparum ortholog aa 875-1232, GST fusion)", "Met"),
    ("CACGUU", "PfIESI-1 RRM domain (Plasmodium falciparum ortholog aa 875-1232, GST fusion)", "Not met"),
    ("UCGGGU", "PfIESI-1 RRM domain (Plasmodium falciparum ortholog aa 875-1232, GST fusion)", "Not met"),
    ("UUUUUG", "PfIESI-1 RRM domain (Plasmodium falciparum ortholog aa 875-1232, GST fusion)", "Met"),
    ("GAUAGU", "PfIESI-1 RRM domain (Plasmodium falciparum ortholog aa 875-1232, GST fusion)", "Met"),
    ("ACCUGA", "PfIESI-1 RRM domain (Plasmodium falciparum ortholog aa 875-1232, GST fusion)", "Met"),
    ("CCCGAA", "PfIESI-1 RRM domain (Plasmodium falciparum ortholog aa 875-1232, GST fusion)", "Met"),
    ("AAUUCG", "PfIESI-1 RRM domain (Plasmodium falciparum ortholog aa 875-1232, GST fusion)", "Met"),
    ("CGGGUC", "PfIESI-1 RRM domain (Plasmodium falciparum ortholog aa 875-1232, GST fusion)", "Not met"),
    ("GCCCGU", "PfIESI-1 RRM domain (Plasmodium falciparum ortholog aa 875-1232, GST fusion)", "Met"),
    ("GAUUCU", "PfIESI-1 RRM domain (Plasmodium falciparum ortholog aa 875-1232, GST fusion)", "Met"),
    ("GCCUGG", "PfIESI-1 RRM domain (Plasmodium falciparum ortholog aa 875-1232, GST fusion)", "Met"),
    ("ACCCGG", "PfIESI-1 RRM domain (Plasmodium falciparum ortholog aa 875-1232, GST fusion)", "Met"),
    ("CUCUAC", "PfIESI-1 RRM domain (Plasmodium falciparum ortholog aa 875-1232, GST fusion)", "Not met"),
    ("AAUUCA", "PfIESI-1 RRM domain (Plasmodium falciparum ortholog aa 875-1232, GST fusion)", "Met"),
    ("UCCCGA", "PfIESI-1 RRM domain (Plasmodium falciparum ortholog aa 875-1232, GST fusion)", "Met"),
    ("CCUUGU", "PfIESI-1 RRM domain (Plasmodium falciparum ortholog aa 875-1232, GST fusion)", "Not met"),
    ("GCCCUG", "PfIESI-1 RRM domain (Plasmodium falciparum ortholog aa 875-1232, GST fusion)", "Met"),
    ("GAUAGC", "PfIESI-1 RRM domain (Plasmodium falciparum ortholog aa 875-1232, GST fusion)", "Met"),
    ("CCCGGU", "PfIESI-1 RRM domain (Plasmodium falciparum ortholog aa 875-1232, GST fusion)", "Met"),
    ("AUAUGA", "PfIESI-1 RRM domain (Plasmodium falciparum ortholog aa 875-1232, GST fusion)", "Met"),
    ("GGGAGU", "PfIESI-1 RRM domain (Plasmodium falciparum ortholog aa 875-1232, GST fusion)", "Met"),
    ("GAUUCC", "PfIESI-1 RRM domain (Plasmodium falciparum ortholog aa 875-1232, GST fusion)", "Met"),
    ("GAUUCA", "PfIESI-1 RRM domain (Plasmodium falciparum ortholog aa 875-1232, GST fusion)", "Met"),
    ("AGAUGC", "PfIESI-1 RRM domain (Plasmodium falciparum ortholog aa 875-1232, GST fusion)", "Met"),
    ("GAUUCG", "PfIESI-1 RRM domain (Plasmodium falciparum ortholog aa 875-1232, GST fusion)", "Met"),
    ("ACCCGC", "PfIESI-1 RRM domain (Plasmodium falciparum ortholog aa 875-1232, GST fusion)", "Met"),
    ("CCGGGA", "PfIESI-1 RRM domain (Plasmodium falciparum ortholog aa 875-1232, GST fusion)", "Met"),
    ("CCCCGA", "PfIESI-1 RRM domain (Plasmodium falciparum ortholog aa 875-1232, GST fusion)", "Met"),
    ("CCCGGG", "PfIESI-1 RRM domain (Plasmodium falciparum ortholog aa 875-1232, GST fusion)", "Met"),
    ("AGAUGG", "PfIESI-1 RRM domain (Plasmodium falciparum ortholog aa 875-1232, GST fusion)", "Met"),
    ("CCUCGA", "PfIESI-1 RRM domain (Plasmodium falciparum ortholog aa 875-1232, GST fusion)", "Met"),
    ("CUAACC", "PfIESI-1 RRM domain (Plasmodium falciparum ortholog aa 875-1232, GST fusion)", "Not met"),
    ("GCCCGA", "PfIESI-1 RRM domain (Plasmodium falciparum ortholog aa 875-1232, GST fusion)", "Met"),
    ("CCCUGG", "PfIESI-1 RRM domain (Plasmodium falciparum ortholog aa 875-1232, GST fusion)", "Met"),
    ("ACCCGU", "PfIESI-1 RRM domain (Plasmodium falciparum ortholog aa 875-1232, GST fusion)", "Met"),
    ("CCAACU", "PfIESI-1 RRM domain (Plasmodium falciparum ortholog aa 875-1232, GST fusion)", "Not met"),
    ("GCCGAG", "PfIESI-1 RRM domain (Plasmodium falciparum ortholog aa 875-1232, GST fusion)", "Met"),
    ("GUCUUA", "PfIESI-1 RRM domain (Plasmodium falciparum ortholog aa 875-1232, GST fusion)", "Not met"),
    ("AUCUGA", "PfIESI-1 RRM domain (Plasmodium falciparum ortholog aa 875-1232, GST fusion)", "Met"),
    ("UGAAAA", "PfIESI-1 RRM domain (Plasmodium falciparum ortholog aa 875-1232, GST fusion)", "Met"),
    ("ACGGGA", "PfIESI-1 RRM domain (Plasmodium falciparum ortholog aa 875-1232, GST fusion)", "Met"),
    ("AAUUCC", "PfIESI-1 RRM domain (Plasmodium falciparum ortholog aa 875-1232, GST fusion)", "Met"),
]
